The measurements presented in this section are drawn from patent US6960566B1.

- study.system: MAb NS19-9
- assay.summary: competition ELISA; peptide preincubated with MAb NS19-9, free MAb binding to SA-Le^a-PAA

| binder | IC50 / µM |
| --- | --- |
| DLWDWVVGKPAG [peptide …] | 700 |
